test system: LG0703-F948-PDC complex spheroid viability; assay: Anticancer human tumor LG0703-F948-PDC patient-derived lung adenocarcinoma cell line growth inhibition; settings: second compound 10 µM; first compound 10 µM; active compounds read low
observationType: viability, T/C (%)
Report only the number, with the unit % understood.

COc1ccc([C@@H](O)c2cc(-c3ncnc4cc(N5CCOCC5)ccc34)c(F)cc2Cl)nn1 + NC1CCC(NC2CC2c2ccccc2)CC1 = 3.19

Enquiry: Which viability, T/C value belongs to CC(C)c1c(-c2ccccc2)nc2c(C#N)c[nH]n2c1=O + NC1CCC(NC2CC2c2ccccc2)CC1 ?
Return: 85.8

Enquiry: Request: O=C(c1cc(Cc2n[nH]c(=O)c3ccccc23)ccc1F)N1CCN(C(=O)C2CC2)CC1 + NC1CCC(NC2CC2c2ccccc2)CC1
Return: 84

Enquiry: Request: CC1COCCN1c1cc(C2(S(C)(=N)=O)CC2)nc(-c2ccnc3[nH]ccc23)n1 (centres undefined) + NC1CCC(NC2CC2c2ccccc2)CC1
Return: 14.2

###

Measured viability, T/C accompanies every entry in the list below.
system: LG0703-F948-PDC complex spheroid viability; test: Anticancer human tumor LG0703-F948-PDC cell line growth inhibition; conditions: second compound 3.16 µM; first compound 0.01 µM; active compounds read low;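 further: spheroids exposed to agents for seven days before readout; 100% = DMSO vehicle control wells as normalization base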
Report only the number, with the unit % understood.

Below are worked cases with known answers.
CC[C@@]1(O)C(=O)OCc2c1cc1n(c2=O)Cc2cc3c(CN(C)C)c(O)ccc3nc2-1 + NC1CC1c1ccc(-c2cccc(O)c2)cc1 = 89.2
Cn1ncnc1C1c2n[nH]c(=O)c3cc(F)cc(c23)NC1c1ccc(F)cc1 (stereo unspecified) + NC1CCC(NC2CC2c2ccccc2)CC1 = 123
CC(C)CC(NC(=O)C(Cc1ccccc1)NC(=O)c1cnccn1)B(O)O (stereo unspecified) + NC1CC1c1ccc(-c2cccc(O)c2)cc1 = 0.39
CC(C)CC(NC(=O)CNC(=O)c1cc(Cl)ccc1Cl)B1OC(=O)CC(CC(=O)O)(C(=O)O)O1 (stereo unspecified) + NC1CCC(NC2CC2c2ccccc2)CC1 = 13.8

Enquiry: Which viability, T/C value belongs to O=C(C=Cn1cnc(-c2cc(C(F)(F)F)cc(C(F)(F)F)c2)n1)NNc1cnccn1 + NC1CC1c1ccc(-c2cccc(O)c2)cc1 ?
Return: 67.7

Enquiry: Request: Nc1ncn(C2CC(O)C(CO)O2)c(=O)n1 (stereo unspecified) + NC1CC1c1ccc(-c2cccc(O)c2)cc1
Return: 112

Enquiry: Request: CC(C)CC(NC(=O)C(Cc1ccccc1)NC(=O)c1cnccn1)B(O)O (stereo unspecified) + NC1CCC(NC2CC2c2ccccc2)CC1
Return: 0.1

Enquiry: Request: COc1cc(Nc2ncc3c(n2)-c2ccc(Cl)cc2C(c2c(F)cccc2OC)=NC3)ccc1C(=O)O + NC1CC1c1ccc(-c2cccc(O)c2)cc1
Return: 111

Enquiry: Request: CC[C@@]1(O)C(=O)OCc2c1cc1n(c2=O)Cc2cc3c(CN(C)C)c(O)ccc3nc2-1 + NC1CCC(NC2CC2c2ccccc2)CC1
Return: 101

Enquiry: Request: Nc1ncn(C2CC(O)C(CO)O2)c(=O)n1 (stereo unspecified) + NC1CCC(NC2CC2c2ccccc2)CC1
Return: 121

Enquiry: Request: COc1cc(Nc2ncc3c(n2)-c2ccc(Cl)cc2C(c2c(F)cccc2OC)=NC3)ccc1C(=O)O + NC1CCC(NC2CC2c2ccccc2)CC1
Return: 94.1

Enquiry: Request: O=C(C=Cn1cnc(-c2cc(C(F)(F)F)cc(C(F)(F)F)c2)n1)NNc1cnccn1 + NC1CCC(NC2CC2c2ccccc2)CC1
Return: 57.2

Enquiry: Request: CC1COCCN1c1cc(-c2ccnn2C)c2ccnc(-c3ccn[nH]3)c2n1 (stereo unspecified) + NC1CCC(NC2CC2c2ccccc2)CC1
Return: 85.8

Enquiry: Request: Cn1ncnc1C1c2n[nH]c(=O)c3cc(F)cc(c23)NC1c1ccc(F)cc1 (stereo unspecified) + NC1CC1c1ccc(-c2cccc(O)c2)cc1
Return: 107

Enquiry: Request: CC1COCCN1c1cc(-c2ccnn2C)c2ccnc(-c3ccn[nH]3)c2n1 (stereo unspecified) + NC1CC1c1ccc(-c2cccc(O)c2)cc1
Return: 77

Enquiry: Request: CC(C)CC(NC(=O)CNC(=O)c1cc(Cl)ccc1Cl)B1OC(=O)CC(CC(=O)O)(C(=O)O)O1 (stereo unspecified) + NC1CC1c1ccc(-c2cccc(O)c2)cc1
Return: 6.24
